Reference source: patent USRE37781E1

molecular target: single-chain tethered dimer of HIV protease (Human immunodeficiency virus 1, UniProt P04585); test: biochemical; format: biochemical; conditions: Table 2t; read-out: Ki
pKi: −log10 of the molar value.
measuredAttribute: pKi

Some solved entries appear below for comparison.
>  <compound>
O=C1N(Cc2ccc3ccccc3c2)CC(O)C(Cc2ccccc2)N1Cc1ccc2ccccc2c1 (stereo not drawn) [30F]

>  <measuredAttribute>
pKi

>  <endpointValue>
< 6.00

$$$$
>  <compound>
NC(=NO)c1cccc(CN2CCC(O)C(Cc3ccccc3)N(Cc3cccc(C(N)=NO)c3)C2=O)c1 (stereo not drawn) [30R]

>  <measuredAttribute>
pKi

>  <endpointValue>
> 8.00

$$$$
>  <compound>
N#Cc1cccc(CN2CCC(O)C(Cc3ccccc3)N(Cc3cccc(C#N)c3)C2=O)c1 (stereo not drawn) [30P]

>  <measuredAttribute>
pKi

>  <endpointValue>
< 6.00

$$$$

In: Any idea what pKi was measured for O=C1N(Cc2ccc(O)cc2)CC(O)C(Cc2ccccc2)N1Cc1ccc(O)cc1 (stereo not drawn) [30D] ?
Out: < 6.00

In: # iterate: O=S1(=O)N(Cc2ccc3ccccc3c2)CC(O)C(Cc2ccccc2)N1Cc1ccc2ccccc2c1 (stereo not drawn) [30I]
Out: 6.00 to 8.00

In: Please give the result for O=C1CCN(Cc2ccccc2)C(=O)N(Cc2ccccc2)C1Cc1ccccc1 (stereo not drawn) [30S] too.
Out: < 6.00
